These data points were gathered from paper PMC9316000.

assay: Pharmacokinetics after single-dose intragastric administration in beagle dogs; format: in vivo; conditions: both sexes, dog, plasma, po, S-IG 5 mg/kg
measure_name: half-life (min)
State the answer as a number, implicitly in min.

half-life recorded for this molecule, CC1(C)OC2CC(=O)OCC23C1C/C(=N\OCCN1CCOCC1)C1(C)C3CC[C@@]2(C)[C@H](c3ccoc3)OC(=O)C3OC312 (stereo partly shown) , is 49.8

====

Test: Pharmacokinetics after single-dose intragastric administration in rats
Type: in vivo, Sprague Dawley rats
Details: Sprague Dawley, rat, plasma, oral; male rats, 3.25 mg/kg intragastric vs intravenous, from AUCs; read-out: absolute oral bioavailability
Description: Blood samples were collected from the fundus venous plexus at various times within 8 h after administration in order to analyze the concentration of HY-071085 in plasma. The profiles of the mean plasma concentration of HY-071085 versus time after a single dose in rats are presented in Figure 2 and Figure 3, and the PK parameters are listed in Table 1. […] According to the obtained plasma concentration time data, the pharmacokinetic parameters were calculated using Phoenix WinNonlin 8.1 software. […]
measure_name: bioavailability (%)
Only the number, expressed in %, is required.

Value of measured bioavailability for the entry CC1(C)OC2CC(=O)OCC23C1C/C(=N\OCCN1CCOCC1)C1(C)C3CC[C@@]2(C)[C@H](c3ccoc3)OC(=O)C3OC312 (stereo partly shown) : 2.83

====

experiment: Pharmacokinetics after single-dose intragastric administration in beagle dogs; type: in vivo; details: both sexes, dog, plasma, po, S-IG 5 mg/kg
measure_name: Tmax (min)
# unit: min | format: bare number

The compound identified as CC1(C)OC2CC(=O)OCC23C1C/C(=N\OCCN1CCOCC1)C1(C)C3CC[C@@]2(C)[C@H](c3ccoc3)OC(=O)C3OC312 (stereo partly shown) [HY-071085] registered its Tmax at 41.4

====

assay: Pharmacokinetics after single-dose intragastric administration in rats; type: in vivo, Sprague Dawley rats; conditions: Sprague Dawley, rat, plasma, po; female rats, S-IG 6.5 mg/kg
measure_name: AUC(0-inf) (ng·h/mL)
Reply numerically in ng·h/mL, unit not repeated.

AUC(0-inf) recorded for this compound, CC1(C)OC2CC(=O)OCC23C1C/C(=N\OCCN1CCOCC1)C1(C)C3CC[C@@]2(C)[C@H](c3ccoc3)OC(=O)C3OC312 (stereo partly shown) [HY-071085] , is 429

====

experiment: Pharmacokinetics after single-dose intragastric administration in rats; format: in vivo, Sprague Dawley rats; conditions: Sprague-Dawley, rat, plasma, po; male rats, S-IG 6.5 mg/kg
measure_name: Tmax (min)
The reply should be a number in min, with the unit left off.

The recorded Tmax for CC1(C)OC2CC(=O)OCC23C1C/C(=N\OCCN1CCOCC1)C1(C)C3CC[C@@]2(C)[C@H](c3ccoc3)OC(=O)C3OC312 (stereo partly shown) is 27

====

test: Pharmacokinetics after single-dose intragastric administration in rats; type: in vivo, Sprague Dawley rats; conditions: Sprague Dawley, rat, plasma, po; female rats, S-IG 13 mg/kg
measure_name: Tmax (min)
Express the result in min but write the number alone.

Item: CC1(C)OC2CC(=O)OCC23C1C/C(=N\OCCN1CCOCC1)C1(C)C3CC[C@@]2(C)[C@H](c3ccoc3)OC(=O)C3OC312 (stereo partly shown) [HY-071085] | Tmax: 57

====

assay: Pharmacokinetics after repeated-dose intragastric administration in rats; type: in vivo, Sprague Dawley rats; settings: Sprague Dawley, rat, plasma, po; male rats, R-IG 6.5 mg/kg, 14 days
measure_name: CL/F at 14 days (mL/min/kg)
Report the value in mL/min/kg with no unit label.

Quick note, CL/F at 14 days for CC1(C)OC2CC(=O)OCC23C1C/C(=N\OCCN1CCOCC1)C1(C)C3CC[C@@]2(C)[C@H](c3ccoc3)OC(=O)C3OC312 (stereo partly shown) [HY-071085] landed at 836
